Assay: Half life of compound in water at 21x10^-6 M
Format: physicochemical
Settings: dose 21 10^-6M
Readout: half-life at 21 µM (h)
The reply should be a number in h, with the unit left off.

So for CCn1cc(C(=O)O)c(=O)c2ccc(/N=N\c3ccc(OC)c(C)c3)cc21 , the logged half-life at 21 µM turned out to be 2

* * *

Assay: Half life in Dutch Belted rabbit retina at 30 uM, IVT measured after 24 to 336 hrs by LC-MS/MS analysis
Assay type: ADME, tissue-based, Oryctolagus cuniculus
Settings: topical or ocular, time 24-336 hrs
Readout: half-life at 30 µM (days)
The reply should be a number in days, with the unit left off.

So for CCN(Cc1ccccc1)c1ccc(/N=N/c2ccc(NC(=O)C[N+](CC)(CC)CC)cc2)cc1 , the logged half-life at 30 µM turned out to be 24
